OD450nm values, listed per item
# experimental.system: HRgpA-6H (Porphyromonas gingivalis) (UniProt P28784)
# assay: ELISA on coated HRgpA-6H

Below: 2 binders and their reported OD450nm.
KB001 mouse Fab FASEBA VH S56L (Fab, V domains shown) VH: EVQLKQSGPGLVAPSQSLSITCTVSGFSLSIYSVHWVRQPPGKGLEWLGMIWGGGLSDYNSALKSRLSISKDNSKSQVFLKMNSLQTDDTAMYYCARNGNFYAMDYWGQGTSVTVSS VL: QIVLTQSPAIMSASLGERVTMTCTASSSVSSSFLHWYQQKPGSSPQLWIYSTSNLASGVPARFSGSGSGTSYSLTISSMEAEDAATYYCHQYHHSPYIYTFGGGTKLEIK | 0.71
KB001 mouse Fab FASEBA VH D58S (Fab, V domains shown) VH: EVQLKQSGPGLVAPSQSLSITCTVSGFSLSIYSVHWVRQPPGKGLEWLGMIWGGGSSSYNSALKSRLSISKDNSKSQVFLKMNSLQTDDTAMYYCARNGNFYAMDYWGQGTSVTVSS VL: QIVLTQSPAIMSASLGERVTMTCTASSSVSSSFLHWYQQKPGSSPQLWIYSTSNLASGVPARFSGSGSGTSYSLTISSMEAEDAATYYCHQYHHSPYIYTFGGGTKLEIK | 0.646

// moving on: another record for OD450nm
According to the records, this binder KB001 mouse Fab FASEBA VH Y106R (Fab, V domains shown) VH: EVQLKQSGPGLVAPSQSLSITCTVSGFSLSIYSVHWVRQPPGKGLEWLGMIWGGGSSDYNSALKSRLSISKDNSKSQVFLKMNSLQTDDTAMYYCARNGNFYAMDRWGQGTSVTVSS VL: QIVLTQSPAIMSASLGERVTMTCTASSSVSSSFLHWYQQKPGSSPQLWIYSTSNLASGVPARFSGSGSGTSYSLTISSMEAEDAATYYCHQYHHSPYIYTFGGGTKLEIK displays OD450nm of 0.793

These data points were gathered from patent US20230365662A1.
